Origin of values: paper PMC10650714

- study_target: recombinant hMAO-A (Homo sapiens, UniProt P21397)
- Construct: purchased Fluka-Sigma-Aldrich s.r.l; (Italy); host or cells: Baculovirus infected BT1 cells
- Sequence (P21397 whole entry): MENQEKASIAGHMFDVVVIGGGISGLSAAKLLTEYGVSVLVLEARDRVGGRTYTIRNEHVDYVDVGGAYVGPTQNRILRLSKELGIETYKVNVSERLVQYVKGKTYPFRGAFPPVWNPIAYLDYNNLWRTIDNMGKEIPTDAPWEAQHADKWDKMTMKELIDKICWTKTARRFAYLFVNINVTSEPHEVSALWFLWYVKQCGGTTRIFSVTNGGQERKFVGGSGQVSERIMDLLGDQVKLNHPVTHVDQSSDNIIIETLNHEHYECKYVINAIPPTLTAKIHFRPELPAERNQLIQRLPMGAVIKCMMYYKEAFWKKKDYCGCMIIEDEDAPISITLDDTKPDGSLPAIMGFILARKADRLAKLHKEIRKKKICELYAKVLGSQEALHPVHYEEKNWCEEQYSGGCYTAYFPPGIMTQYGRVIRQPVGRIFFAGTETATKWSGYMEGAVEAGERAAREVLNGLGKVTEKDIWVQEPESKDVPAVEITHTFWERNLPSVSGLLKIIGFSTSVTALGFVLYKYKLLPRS
- assay_name: hMAO-A activity assay (kynuramine, fluorimetric)
- Type: biochemical
- Procedure: Human recombinant hMAO-A and hMAO-B expressed in Baculovirus infected BT1 cells (5 mg/mL) and horseradish peroxidases were purchased from Fluka-Sigma-Aldrich s.r.l. (Italy). A Cary Eclipse fluorimeter (Varian Inc., Palo Alto, CA, USA) was used for fluorescence measurements. […] At first, the peroxidase-coupled continuous assay that detect the H2O2 generation rate was considered. It uses the Amplex Red reagent as the fluorogenic substrate for horseradish peroxidase. […]
assay_metric: pKi
Reminder that pKi means the negative base-10 logarithm of the concentration expressed in mol/L.

## Input Entry O=C(/C=C/c1ccc(O)c(O)c1)OCCc1ccccc1 [CAPE, caffeic acid phenethyl ester, reference compound] : reported pKi = ?
## Output 4.92

###

- study_target: recombinant hMAO-B (Homo sapiens, UniProt P27338)
- Construct: purchased Fluka-Sigma-Aldrich s.r.l; (Italy); host or cells: Baculovirus infected BT1 cells
- Sequence (P27338 whole entry): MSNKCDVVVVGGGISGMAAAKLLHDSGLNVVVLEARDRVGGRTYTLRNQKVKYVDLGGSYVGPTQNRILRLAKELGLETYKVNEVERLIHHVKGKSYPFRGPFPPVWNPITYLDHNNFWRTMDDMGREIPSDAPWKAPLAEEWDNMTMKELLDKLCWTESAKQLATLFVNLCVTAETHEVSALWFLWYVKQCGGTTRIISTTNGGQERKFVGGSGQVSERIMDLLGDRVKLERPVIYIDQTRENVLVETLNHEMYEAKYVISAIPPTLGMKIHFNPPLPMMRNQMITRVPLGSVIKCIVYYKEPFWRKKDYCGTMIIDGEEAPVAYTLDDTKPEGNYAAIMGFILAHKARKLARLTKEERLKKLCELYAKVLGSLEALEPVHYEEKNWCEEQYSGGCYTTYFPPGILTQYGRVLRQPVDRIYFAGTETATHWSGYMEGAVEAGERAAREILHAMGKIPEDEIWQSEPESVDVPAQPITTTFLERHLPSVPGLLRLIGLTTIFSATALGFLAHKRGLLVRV
- assay_name: hMAO-B activity assay (kynuramine, fluorimetric)
- Type: biochemical
- reported_conditions: read-out: hMAO-B Ki
assay_metric: Ki (nM)
Please give a number only; it is taken to be in nM.

## Input Entry O=C(/C=C/c1ccc(O)c(O)c1)Oc1ccc(CC2SC(=O)NC2=O)cc1 (stereo not shown) : reported Ki = ?
## Output 530

###

- study_target: recombinant hMAO-B (Homo sapiens, UniProt P27338)
- Construct: purchased Fluka-Sigma-Aldrich s.r.l; (Italy); host or cells: Baculovirus infected BT1 cells
- assay_name: hMAO-B activity assay (kynuramine, fluorimetric)
- Type: biochemical
- reported_conditions: global fit analysis, mixed inhibition model; read-out: KEI (inhibition constant for the free enzyme)
assay_metric: Ki (µM)
Please give a number only; it is taken to be in µM.

## Input Entry O=C(/C=C/c1ccc(O)c(O)c1)Oc1ccc(CC2SC(=O)NC2=O)cc1 (stereo not shown) : reported Ki = ?
## Output 0.45

###

- study_target: recombinant hMAO-A (Homo sapiens, UniProt P21397)
- Construct: purchased Fluka-Sigma-Aldrich s.r.l; (Italy); host or cells: Baculovirus infected BT1 cells
- assay_name: hMAO-A activity assay (kynuramine, fluorimetric)
- Assay type: biochemical
- reported_conditions: kynuramine [S] = 10 µM, pH 7.4, 37 °C; mean ± S.D.; read-out: hMAO-A Ki
assay_metric: pKi
Reminder that pKi means the negative base-10 logarithm of the concentration expressed in mol/L.

## Input Lab note: need pKi with recombinant hMAO-A (Homo sapiens, UniProt P21397) for entry COc1cc(/C=C/C(=O)Nc2ccc(CC3SC(=O)NC3=O)cc2)ccc1O (stereo not drawn) [Compound 5] , please look it up.
## Output 4.33

## Input Cool, now O=C(/C=C/c1ccc(O)c(O)c1)Oc1ccc(CC2SC(=O)NC2=O)cc1 (stereo not drawn) [Compound 2]
## Output 4.46

## Input Cool, now COc1cc(/C=C/C(=O)Oc2ccc(CC3SC(=O)NC3=O)cc2)ccc1O (stereo not drawn) [Compound 3]
## Output 4.49

## Input Cool, now COC(=O)/C=C/C(=O)Oc1ccc(CC2SC(=O)NC2=O)cc1 (stereo not drawn) [Compound 1]
## Output 4.60

## Input Cool, now O=C(/C=C/c1ccc(O)c(O)c1)Nc1ccc(CC2SC(=O)NC2=O)cc1 (stereo not drawn) [Compound 4]
## Output 4.41
